tested on: NCI-H226 cells; experiment: Viability assay in NCI-H226 (Yap-dependent) cells, CyQUANT; type: cell-based; settings: Homo sapiens, NCI-H226 YAP dependent cell line, 96 hour incubation, group symbols
pIC50: −log10 of the molar value.
Measured quantity: pIC50

Worked cases, answers included:
>  <Molecule>
Cn1cc2c3cc(C(=O)NC4(CO)CC4)sc3n(-c3ccc(C(F)(F)F)cc3)c2n1 [Compound 91]

>  <Target or test system>
NCI-H226 cells

>  <pIC50>
7.00 to 9.00

$$$$
>  <Molecule>
Cn1cc2c3cc(C(=O)N[C@@H](CO)c4ccccn4)sc3n(-c3ccc(C(F)F)cn3)c2n1 [Compound 120]

>  <Target or test system>
NCI-H226 cells

>  <pIC50>
6.00 to 7.00

$$$$
>  <Molecule>
Cn1cc2c3cc(C(=O)NCC(O)CO)sc3n(-c3ccc(C(F)(F)F)cc3)c2n1 (stereo not shown) [Compound 97]

>  <Target or test system>
NCI-H226 cells

>  <pIC50>
6.00 to 7.00

$$$$
>  <Molecule>
CC[C@@H](CO)NC(=O)c1cc2c3cn(C)nc3n(-c3ccc(C(F)(F)F)cc3)c2s1 [Compound 92]

>  <Target or test system>
NCI-H226 cells

>  <pIC50>
6.00 to 7.00

$$$$

Look up pIC50 for the entries below, preserving their order.
1. CNC(=O)c1cc2c3cn(C)nc3n(-c3ccc(C(F)(F)F)cn3)c2s1 [Compound 47]
2. CNC(=O)c1cc2c(s1)c1nn(C)nc1n2-c1ccc(C(F)(F)F)cc1 [Compound 5]
3. C[C@H](CO)NC(=O)c1cc2c3cn(C)nc3n(-c3ccc(OC(F)(F)F)cn3)c2s1 [Compound 126]
4. C[C@H](CO)NC(=O)c1cc2c3cn(C)nc3n(-c3ccc(C(F)(F)F)cn3)c2s1 [Compound 48]
5. Cn1ccc(C(CO)NC(=O)c2cc3c4cn(C)nc4n(-c4ccc(C(F)(F)F)cc4)c3s2)n1 (stereo not shown) [Compound 96]
6. C[C@@H](CO)NC(=O)c1cc2c3cn(C)nc3n(-c3ccc(C(F)(F)F)cc3)c2s1 [Compound 68]

Result block:
1: 7.00 to 9.00; 2: 5.00 to 6.00; 3: 7.00 to 9.00; 4: 7.00 to 9.00; 5: 7.00 to 9.00; 6: 7.00 to 9.00

====

Assignment: determine reported IC50 for the given compounds.
test system: YAP-TEAD interaction; test: SK-HEP-1 reporter assay (8x TEAD responsive elements driving NanoLuc luciferase); format: cell-based; settings: Homo sapiens, SK-HEP1, SK-HEP-1 cells, 24 hour incubation, number, or n.d. (x) = not detectable below threshold x

Look up IC50 for the entries below, preserving their order.
1. C[C@H](O)CNC(=O)c1cc2c3cn(C)nc3n(-c3ccc(C(F)(F)F)cc3)c2s1
2. Cn1cc2c3cc(C(=O)N4CC[C@@H](O)C4)sc3n(-c3ccc(C(F)(F)F)cc3)c2n1
3. CNC(=O)c1cc2c3cn(C)nc3n(-c3ccc(C(F)F)cn3)c2s1
4. C[C@@H](CO)NC(=O)c1cc2c3nn(C)nc3n(-c3ccc(C(F)(F)F)cc3)c2s1

Result block:
1: > 9.5 µM; 2: > 9.5 µM; 3: > 30 µM; 4: > 30 µM

====

tested on: YAP-TEAD interaction; assay: SK-HEP-1 reporter assay (8x TEAD responsive elements driving NanoLuc luciferase); format: cell-based; settings: Homo sapiens, SK-HEP1, SK-HEP-1 cells, 24 hour incubation, number, or n.d. (x) = not detectable below threshold x
Measured quantity: IC50

Look up IC50 for the entries below, preserving their order.
1. C[C@@H](O)CNC(=O)c1cc2c3cn(C)nc3n(-c3ccc(C(F)(F)F)cc3)c2s1
2. Cn1cc2c3cc(C(=O)N4CC[C@H](O)C4)sc3n(-c3ccc(C(F)(F)F)cc3)c2n1
3. COCCC(CO)NC(=O)c1cc2c3cn(C)nc3n(-c3ccc(C(F)(F)F)cc3)c2s1 (racemic)
4. CNC(=O)c1cc2c3cn(C)nc3n(-c3ccc(C(F)(F)F)nc3)c2s1
5. Cn1cc2c3cc(C(=O)N[C@H](CO)C4CCC4)sc3n(-c3ccc(C(F)(F)F)cc3)c2n1 (single isomer, unassigned)
6. C[C@H](CO)NC(=O)c1cc2c3cn(C)nc3n(-c3ccc(C(F)F)cn3)c2s1
7. C[C@H](CO)NC(=O)c1cc2c3cn(C)nc3n(-c3ccc(C(F)(F)F)nc3)c2s1
8. Cn1cc2c3cc(C(=O)N[C@@H](CO)c4ccccn4)sc3n(-c3ccc(C(F)(F)F)cn3)c2n1

Result block:
1. > 9.5 µM
2. > 30 µM
3. > 9.5 µM
4. > 30 µM
5. > 9.5 µM
6. > 0.3 µM
7. > 30 µM
8. > 9.5 µM

====

system: NCI-H226 cells; experiment: Viability assay in NCI-H226 (Yap-dependent) cells, CyQUANT; assay type: cell-based; details: Homo sapiens, NCI-H226 YAP dependent cell line, 96 hour incubation, group symbols
pIC50: −log10 of the molar value.
Measured quantity: pIC50

Worked cases, answers included:
>  <Molecule>
C[C@H](O)CNC(=O)c1cc2c3cn(C)nc3n(-c3ccc(C(F)(F)F)cc3)c2s1

>  <pIC50>
7.00 to 9.00

$$$$
>  <Molecule>
Cn1cnc2c1c1sc(C(=O)O)cc1n2-c1ccc(C(F)(F)F)cc1

>  <pIC50>
6.00 to 7.00

$$$$
>  <Molecule>
Cn1cc2c3cc(C(=O)N=[S@](C)(=O)CCCO)sc3n(-c3ccc(C(F)(F)F)cc3)c2n1 (single isomer, unassigned)

>  <pIC50>
6.00 to 7.00

$$$$
>  <Molecule>
Cn1cc2c3cc(C(=O)NCc4ccncc4)sc3n(-c3ccc(C(F)(F)F)cc3)c2n1

>  <pIC50>
7.00 to 9.00

$$$$

Look up pIC50 for the entries below, preserving their order.
1. Cn1nc2c3sc(C(=O)NC(CO)c4ccccn4)cc3n(-c3ccc(C(F)(F)F)cc3)c2n1 (stereo not drawn)
2. Cn1cc2c3cc(C(=O)O)sc3n([C@H]3CC[C@H](C(F)(F)F)CC3)c2n1
3. Cn1cc2c3cc(C(=O)N[C@@H](CO)c4ccccn4)sc3n(-c3ccc(OC(F)(F)F)cn3)c2n1
4. CNC(=O)c1cc2c(s1)c1cn(C)nc1n2-c1ccc(C(F)(F)F)cc1
5. CNC(=O)c1cc2c3nn(C)nc3n(-c3ccc(C(F)(F)F)cc3)c2s1
6. CNC(=O)c1cc2c3cn(C)nc3n(-c3ccc(OC(F)F)cn3)c2s1
7. CNC(=O)c1cc2c3cn(C)nc3n(-c3ccc(OC(F)(F)F)cc3)c2s1
8. COCC[C@@H](CO)NC(=O)c1cc2c3cn(C)nc3n(-c3ccc(C(F)(F)F)cc3)c2s1 (single isomer, unassigned)

Result block:
1: 5.00 to 6.00; 2: 7.00 to 9.00; 3: 7.00 to 9.00; 4: < 5.00; 5: 7.00 to 9.00; 6: 7.00 to 9.00; 7: 7.00 to 9.00; 8: 6.00 to 7.00

====

Assignment: determine reported IC50 for the given compounds.
system: YAP-TEAD interaction; experiment: SK-HEP-1 reporter assay (8x TEAD responsive elements driving NanoLuc luciferase); assay type: cell-based; conditions: Homo sapiens, SK-HEP1, SK-HEP-1 cells, 24 hour incubation, number, or n.d. (x) = not detectable below threshold x

Worked cases, answers included:
>  <Compound>
CC[C@@H](CO)NC(=O)c1cc2c3cn(C)nc3n(-c3ccc(C(F)(F)F)cc3)c2s1 [Compound 92]

>  <IC50>
> 30 µM

$$$$
>  <Compound>
Cn1cc2c3cc(C(=O)N[C@H](CCO)c4cncs4)sc3n(-c3ccc(C(F)(F)F)cc3)c2n1 (single isomer, unassigned) [Compound 42]

>  <IC50>
> 9.5 µM

$$$$
>  <Compound>
Cn1ccc(C(CO)NC(=O)c2cc3c4cn(C)nc4n(-c4ccc(C(F)(F)F)cn4)c3s2)n1 (stereo not shown) [Compound 116]

>  <IC50>
> 30 µM

$$$$
>  <Compound>
Cn1cc2c3cc(C(=O)NCCOCCOCCNC(=O)OC(C)(C)C)sc3n(-c3ccc(C(F)(F)F)cc3)c2n1 [Compound 88]

>  <IC50>
> 30 µM

$$$$
>  <Compound>
Cn1cc2c3cc(-c4noc(=O)[nH]4)sc3n(-c3ccc(C(F)(F)F)cc3)c2n1 [Compound 80]

>  <IC50>
> 30 µM

$$$$

Look up IC50 for the entries below, preserving their order.
1. Cn1cc2c3cc(C(=O)N[C@@H](CO)c4ccccn4)sc3n(-c3ccc(C(F)F)cn3)c2n1 [Compound 120]
2. Cn1cc2c3cc(C(=O)NCCO)sc3n(-c3ccc(C(F)(F)F)cc3)c2n1 [Compound 64]

Result block:
["> 0.3 µM", "> 0.95 µM"]
